Just for reference, the supplement of paper PMC7877785 is where these values come from.

Reported values of self-splicing fitness (ln) for individual entries
measurement.notes: self-splicing fitness, log relative to wild type (ln ratio); higher = more splicing; Tetrahymena group I intron in knt gene, E. coli kanamycin selection, DiMSum; sequences stand for … in CUCUCU…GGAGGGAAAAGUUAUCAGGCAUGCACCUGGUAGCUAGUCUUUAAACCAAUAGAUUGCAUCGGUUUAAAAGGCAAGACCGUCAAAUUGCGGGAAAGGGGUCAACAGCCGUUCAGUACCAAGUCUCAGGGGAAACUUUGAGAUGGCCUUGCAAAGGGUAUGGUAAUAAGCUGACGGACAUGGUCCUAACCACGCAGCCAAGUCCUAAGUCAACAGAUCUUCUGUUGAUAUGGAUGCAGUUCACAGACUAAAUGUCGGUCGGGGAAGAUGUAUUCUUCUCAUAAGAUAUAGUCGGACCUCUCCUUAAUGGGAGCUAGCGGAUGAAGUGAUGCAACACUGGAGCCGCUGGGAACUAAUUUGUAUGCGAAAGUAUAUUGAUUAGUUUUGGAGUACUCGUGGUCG;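 further: selection with 25 µg/mL kanamycin versus none on LB agar overnight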
condition.set: 37 °C
readout.type: self-splicing fitness (ln)

>>> readout_number("GCGUAGCAAUAUUACGAUUC")
-0.0224
>>> readout_number("CCUAAGCAAUAUUACGGCUC")
-1.56
>>> readout_number("ACGCAGCAAUAUUACGGCAC")
-0.602
>>> readout_number("GUAUAGCAAUAUUACGAGGC")
-2.18
>>> readout_number("UUUAAGCAAUAUUACGUAUA")
-1.54
>>> readout_number("CUCGAGCAAUAUUACGAAGU")
-1.84
>>> readout_number("GACAAGCAAUAUUACGAAUC")
-2.53
>>> readout_number("UCUAAGCAAUAUUACGCGGU")
-1.4
>>> readout_number("AAUGAGCAAUAUUACGCAAG")
-2.45
>>> readout_number("UGAUAGCAAUAUUACGGACU")
0.214
>>> readout_number("AAGUAGCAAUAUUACGUACU")
-0.429
>>> readout_number("CUCAAGCAAUAUUACGGAAC")
-2.46
>>> readout_number("CGCCAGCAAUAUUACGGAAU")
-2.05
>>> readout_number("CGCCAGCAAUAUUACGUUAG")
0.385
>>> readout_number("UGAAAGCAAUAUUACGGGUU")
-2.06
>>> readout_number("GUAAAGCAAUAUUACGGGCU")
-1.24

###

measurement.notes: self-splicing fitness, log relative to wild type (ln ratio); higher = more splicing; Tetrahymena group I intron in knt gene, E. coli kanamycin selection, DiMSum; sequences stand for … in CUCUCU…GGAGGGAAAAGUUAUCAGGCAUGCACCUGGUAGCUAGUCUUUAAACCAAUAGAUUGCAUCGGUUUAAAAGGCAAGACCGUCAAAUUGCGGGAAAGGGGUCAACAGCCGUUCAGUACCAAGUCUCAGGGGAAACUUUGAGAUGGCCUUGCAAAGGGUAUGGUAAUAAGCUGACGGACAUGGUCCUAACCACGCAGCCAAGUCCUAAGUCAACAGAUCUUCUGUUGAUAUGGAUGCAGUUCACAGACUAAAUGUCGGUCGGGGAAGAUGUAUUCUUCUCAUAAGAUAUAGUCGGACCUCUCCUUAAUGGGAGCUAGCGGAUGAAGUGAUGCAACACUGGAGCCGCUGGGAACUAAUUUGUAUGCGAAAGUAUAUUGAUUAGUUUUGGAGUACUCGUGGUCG
condition.set: 30 °C
Reported values of self-splicing fitness (ln) for individual entries
readout.type: self-splicing fitness (ln)

>>> result("AGAUAGCAAUAUUACGUUUA")
-2.12
>>> result("ACAGAGCAAUAUUACGAAGU")
-2.65
>>> result("UGUUAGCAAUAUUACGGGCG")
-0.142
>>> result("ACCGAGCAAUAUUACGCAAU")
-2.71
>>> result("GGAAAGCAAUAUUACGUCAG")
-3.08
>>> result("UAGUAGCAAUAUUACGCAGU")
-2.65
>>> result("UGUUAGCAAUAUUACGUGUC")
-3.15
>>> result("GUUCAGCAAUAUUACGCGCG")
-0.45
